Give IC50 for every item shown.
Molecular target: Human CDK12 wt/CycK (Homo sapiens (Human))
Sequence (Q9NYV4 whole entry): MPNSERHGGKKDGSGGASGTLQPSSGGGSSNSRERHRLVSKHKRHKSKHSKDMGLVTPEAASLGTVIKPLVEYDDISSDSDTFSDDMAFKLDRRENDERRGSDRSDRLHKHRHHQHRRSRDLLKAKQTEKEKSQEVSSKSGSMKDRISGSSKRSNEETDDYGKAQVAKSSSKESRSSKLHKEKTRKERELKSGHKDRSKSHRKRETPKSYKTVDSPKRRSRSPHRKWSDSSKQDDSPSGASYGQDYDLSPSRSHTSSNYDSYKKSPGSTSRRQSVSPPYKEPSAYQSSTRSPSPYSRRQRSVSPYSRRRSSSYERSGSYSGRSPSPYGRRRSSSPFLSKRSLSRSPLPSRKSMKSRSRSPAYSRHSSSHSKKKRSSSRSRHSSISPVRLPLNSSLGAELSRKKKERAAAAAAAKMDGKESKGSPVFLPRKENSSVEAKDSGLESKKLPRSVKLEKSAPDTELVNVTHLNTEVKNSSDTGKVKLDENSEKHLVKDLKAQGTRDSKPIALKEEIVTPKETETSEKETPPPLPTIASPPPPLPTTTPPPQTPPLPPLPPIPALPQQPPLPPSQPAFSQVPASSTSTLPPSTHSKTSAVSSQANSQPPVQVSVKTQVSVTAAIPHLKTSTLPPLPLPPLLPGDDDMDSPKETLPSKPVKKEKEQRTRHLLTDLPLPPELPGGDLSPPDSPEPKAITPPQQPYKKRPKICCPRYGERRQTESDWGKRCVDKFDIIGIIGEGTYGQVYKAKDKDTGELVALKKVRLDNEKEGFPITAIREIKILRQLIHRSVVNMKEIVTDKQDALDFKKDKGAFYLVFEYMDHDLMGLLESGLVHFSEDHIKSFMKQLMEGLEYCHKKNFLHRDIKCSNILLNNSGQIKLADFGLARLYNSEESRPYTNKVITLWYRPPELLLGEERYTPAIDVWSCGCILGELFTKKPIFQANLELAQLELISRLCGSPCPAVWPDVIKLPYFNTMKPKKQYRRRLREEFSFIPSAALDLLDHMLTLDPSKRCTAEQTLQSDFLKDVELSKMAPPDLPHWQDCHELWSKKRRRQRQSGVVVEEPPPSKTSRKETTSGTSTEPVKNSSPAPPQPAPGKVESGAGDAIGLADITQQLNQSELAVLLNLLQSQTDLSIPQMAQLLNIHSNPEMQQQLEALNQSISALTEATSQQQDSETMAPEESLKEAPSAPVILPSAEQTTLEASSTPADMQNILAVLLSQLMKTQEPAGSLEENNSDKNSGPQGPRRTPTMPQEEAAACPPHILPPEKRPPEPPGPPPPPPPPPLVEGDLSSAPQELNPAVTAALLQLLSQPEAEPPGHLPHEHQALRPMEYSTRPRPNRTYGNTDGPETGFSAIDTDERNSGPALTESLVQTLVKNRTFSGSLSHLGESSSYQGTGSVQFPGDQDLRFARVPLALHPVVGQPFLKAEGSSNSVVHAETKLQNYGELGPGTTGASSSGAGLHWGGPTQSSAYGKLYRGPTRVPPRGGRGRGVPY
Sequence (O75909 whole entry partner): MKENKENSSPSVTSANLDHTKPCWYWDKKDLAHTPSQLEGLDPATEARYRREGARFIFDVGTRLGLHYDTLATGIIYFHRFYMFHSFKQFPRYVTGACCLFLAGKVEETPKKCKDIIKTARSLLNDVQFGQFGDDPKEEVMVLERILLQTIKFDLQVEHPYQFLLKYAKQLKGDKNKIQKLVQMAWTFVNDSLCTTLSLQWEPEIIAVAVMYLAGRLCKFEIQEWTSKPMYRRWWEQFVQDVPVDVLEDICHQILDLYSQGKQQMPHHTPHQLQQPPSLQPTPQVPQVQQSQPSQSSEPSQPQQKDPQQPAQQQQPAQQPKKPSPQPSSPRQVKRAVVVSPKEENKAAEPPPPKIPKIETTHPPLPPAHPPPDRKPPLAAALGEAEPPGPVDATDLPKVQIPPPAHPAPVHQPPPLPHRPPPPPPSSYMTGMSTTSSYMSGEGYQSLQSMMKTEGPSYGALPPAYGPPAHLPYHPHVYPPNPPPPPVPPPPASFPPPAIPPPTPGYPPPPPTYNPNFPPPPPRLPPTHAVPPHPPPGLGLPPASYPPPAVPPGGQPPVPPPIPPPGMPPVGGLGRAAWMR
Test: Radiometric protein kinase assay (33PanQinase Activity Assay), CDK12
Assay type: biochemical
Conditions: Table 1; ATP 0.3 μM; read-out: CDK12 IC50
Numbers only, in nM.

>  <Molecule>
CCc1cnn2c(NCc3cn4cc(C5CC5)cc(C(F)(F)F)c4n3)cc(NC[C@H]3CCNC[C@@H]3O)nc12

>  <Experimental Endpoint>
IC50

>  <Test Result>
100

$$$$
>  <Molecule>
O[C@H]1CNCC[C@@H]1CNc1cc(NCc2cn3ccc(-c4ccccc4)cc3n2)n2ncc(C3CC3)c2n1

>  <Experimental Endpoint>
IC50

>  <Test Result>
18

$$$$
>  <Molecule>
CC(C)c1cnn2c(NCc3cn4cccc(C5CC5)c4n3)cc(NC[C@H]3CCNC[C@@H]3O)nc12

>  <Experimental Endpoint>
IC50

>  <Test Result>
70

$$$$
>  <Molecule>
CC(C)c1cnn2c(NCc3nc4ccccn4c3C(F)(F)F)cc(NC[C@H]3CCNC[C@@H]3O)nc12

>  <Experimental Endpoint>
IC50

>  <Test Result>
702

$$$$

Lab note: each compound below needs its IC50 filled in.
1. O[C@H]1CNCC[C@@H]1CNc1cc(NCc2cn3cc(C4CC4)cc(C(F)(F)F)c3n2)n2ncc(C3CC3)c2n1
2. Cn1c(CNc2cc(NC[C@H]3CCNC[C@@H]3O)nc3c(C4CC4)cnn23)nc2cc(F)c(F)cc21
3. CC(C)c1cnn2c(NCc3cnc4ccccc4c3)cc(NC[C@H]3CCNC[C@@H]3O)nc12
4. Cc1cn2cc(CNc3cc(NC[C@H]4CCNC[C@@H]4O)nc4c(C5CC5)cnn34)nc2cc1C(F)(F)F
5. Cc1cccc2nc(CNc3cc(NC[C@H]4CCNC[C@@H]4O)nc4c(C(C)C)cnn34)cn12

[100, 287, 167, 48, 40]

Lab note: each compound below needs its IC50 filled in.
1. CCc1cnn2c(NCc3cn4cccc(C)c4n3)cc(NC[C@H]3CCNC[C@@H]3O)nc12
2. CC(C)Oc1cccc2nc(CNc3cc(NC[C@H]4CCNC[C@@H]4O)nc4c(C5CC5)cnn34)cn12

1: 31; 2: 46

* * *

Molecular target: Human CDK7/CycH/MAT1 (Homo sapiens (Human), UniProt P50613)
Sequence (P50613 whole entry): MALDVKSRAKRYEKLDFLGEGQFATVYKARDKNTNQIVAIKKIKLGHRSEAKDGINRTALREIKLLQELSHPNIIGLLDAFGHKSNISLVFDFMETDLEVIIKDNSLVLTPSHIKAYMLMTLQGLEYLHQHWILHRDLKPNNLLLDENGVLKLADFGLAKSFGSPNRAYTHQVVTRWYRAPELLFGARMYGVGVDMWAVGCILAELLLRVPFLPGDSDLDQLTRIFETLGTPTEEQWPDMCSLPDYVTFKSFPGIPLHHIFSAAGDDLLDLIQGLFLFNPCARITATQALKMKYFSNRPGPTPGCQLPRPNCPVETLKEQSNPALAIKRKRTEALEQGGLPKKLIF
Sequence (P51946 whole entry partner): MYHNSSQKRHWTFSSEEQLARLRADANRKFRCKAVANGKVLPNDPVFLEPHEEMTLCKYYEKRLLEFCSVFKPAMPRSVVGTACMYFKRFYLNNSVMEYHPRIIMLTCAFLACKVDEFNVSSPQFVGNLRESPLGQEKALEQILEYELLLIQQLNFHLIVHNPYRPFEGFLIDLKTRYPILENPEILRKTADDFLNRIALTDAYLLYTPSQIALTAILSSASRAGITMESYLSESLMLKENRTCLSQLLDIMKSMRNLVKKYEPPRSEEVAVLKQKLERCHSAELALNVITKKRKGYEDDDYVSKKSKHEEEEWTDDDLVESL
Sequence (P51948 whole entry partner): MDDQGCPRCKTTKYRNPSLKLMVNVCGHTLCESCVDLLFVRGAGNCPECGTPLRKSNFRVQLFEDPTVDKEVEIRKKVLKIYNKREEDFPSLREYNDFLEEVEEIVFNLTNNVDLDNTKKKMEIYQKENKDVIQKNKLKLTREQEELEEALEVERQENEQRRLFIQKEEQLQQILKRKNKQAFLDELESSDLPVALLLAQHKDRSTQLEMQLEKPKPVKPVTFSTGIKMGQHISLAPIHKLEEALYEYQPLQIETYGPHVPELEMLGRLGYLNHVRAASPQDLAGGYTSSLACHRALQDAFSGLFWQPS
Experiment: Radiometric protein kinase assay (33PanQinase Activity Assay), CDK7
Type: biochemical
Conditions: Table 1; ATP 3 μM
Experimental Endpoint: pIC50
Numbers only, as −log10 of the molar value.

>  <Compound>
CC(C)c1cnn2c(NCc3cn4cccnc4n3)cc(NC[C@H]3CCNC[C@@H]3O)nc12

>  <Test Result>
6.15

$$$$
>  <Compound>
CC(C)c1cnn2c(NCc3cn4cccc(C5CC5)c4n3)cc(NC[C@H]3CCNC[C@@H]3O)nc12

>  <Test Result>
6.65

$$$$
>  <Compound>
CC(C)c1cnn2c(NCc3ccncc3)cc(NC[C@H]3CCNC[C@@H]3O)nc12 [REF-002, reference compound]

>  <Test Result>
6.90

$$$$

Please look at the following compound next.
# compound `CC(C)c1cnn2c(NCc3nc4ccccc4[nH]3)cc(NC[C@H]3CCNC[C@@H]3O)nc12` ; its pIC50 = 6.46
